ASSAY_DETAILS: Toxicity liver stage against HepG2, at 10uM
Assay type: cell-based
Design: test concentration 10 uM, cell line HepG2-A16-CD81EGFP
MEASUREMENT_CONTEXT: human, HepG2-A16-CD81EGFP cells; read-out: INHIBITION
I'd appreciate it if you could supply cytotoxicity at 10 µM values for the items below.
Your answer should be a plain number; it is taken to be in %.

Problem: Which value of cytotoxicity at 10 µM has been reported for `CCN1CC2(CCC1=O)CCN(C(=O)c1ccc(Cl)cc1O)CC2` in the records?
Result: -12.8

Problem: Entry `CCn1nc(C)cc1C(=O)NCc1cccnc1N(C)C` : reported cytotoxicity at 10 µM = ?
Result: -5.54

Problem: What value of cytotoxicity at 10 µM has been reported for the following compound? `CCN(CCOc1ccc(F)cc1)C(=O)c1ccncc1Cl`
Result: -3.35

Problem: Need cytotoxicity at 10 µM, item Cc1nc(C)c(C(C)NCc2c(C)nn(CC(C)C)c2N(C)C)s1 (stereo unspecified)
Result: -2.49

Problem: Returns the measured cytotoxicity at 10 µM for the input compound. Input: CC(=O)OCc1ccc(CN2CCCCCC2c2cc(C)no2)o1 (stereo unspecified)
Result: -13.1

Problem: Please give the measured cytotoxicity at 10 µM for this compound: O=C(NC1CC(=O)N(C2Cc3ccccc3C2)C1)c1cnccn1 (stereo unspecified)
Result: 0.661

Problem: Name the recorded cytotoxicity at 10 µM for `Cn1ccnc1CN1CCC2(CC1)CN(c1ccccc1)C(=O)CO2` .
Result: -0.414

Problem: I'd like to know its cytotoxicity at 10 µM. The compound in question is COc1ccc(-c2nc3c([nH]2)CCNC3C(=O)O)c2ccccc12 (stereo unspecified)
Result: 8.63

Problem: I would be grateful if you could share the reported cytotoxicity at 10 µM for CC(=O)N1CCCC(Cc2nccn2C)C1 (stereo unspecified) .
Result: -5.52

Problem: Which value of cytotoxicity at 10 µM has been reported for `Cn1nc(-c2ccccc2)cc1[C@H]1CN2CC[C@H]1C[C@@H]2CNS(C)(=O)=O` in the records?
Result: 1.82

Problem: # lookup: cytotoxicity at 10 µM of CCNC(=O)C1CCCN(C(=O)Nc2ccc3c(c2)CCCN3C)C1 (stereo unspecified)
Result: 13.6

Problem: Looking for the measured cytotoxicity at 10 µM of `CCn1c(C(=O)N2CCCN(CC(N)=O)CC2)cc2ccccc21` , can you help?
Result: -4.77

Problem: Give its cytotoxicity at 10 µM value. Item: `Cn1ccc2c(C(=O)N3CCN(C(=O)C4CCCC4)CC3)cccc21`
Result: -0.53

Problem: Which cytotoxicity at 10 µM value belongs to `COCCN(C(=O)c1ccccn1)c1nc2c(s1)CCc1c-2cnn1C` ?
Result: -13.8

Problem: Find the recorded cytotoxicity at 10 µM belonging to CC(Nc1ncnc2c1CCNCC2)c1nc2c(s1)CCCC2 (stereo unspecified) and report it.
Result: 1.28

Problem: Could you tell me which cytotoxicity at 10 µM is on file for O=S(=O)(NCC1(O)CCOc2ccccc21)c1cccs1 (stereo unspecified) ?
Result: -16.8

Problem: // returns reported cytotoxicity at 10 µM for input Cc1cnn(CC2CCCCN2C(=O)c2cccc3c2OCO3)c1 (stereo unspecified)
Result: -4.89

Problem: Returns the measured cytotoxicity at 10 µM for the input compound. Input: `O=C(NC[C@H]1OC[C@@H](NC2COC2)[C@@H]1O)C1CCCC1`
Result: -3.11

Problem: Can you look up the measured cytotoxicity at 10 µM of Cc1ccc(CNC(=O)NC2CCCN(c3ncccn3)C2)n1C (stereo unspecified) for me?
Result: 5.23

Problem: Form field: reported cytotoxicity at 10 µM of COc1ccc(S(=O)(=O)N2CCCC3(CCCN3S(C)(=O)=O)C2)cc1 (stereo unspecified)
Result: -0.908

Problem: Query: cytotoxicity at 10 µM; subject: `O=C(NCCNc1ncccn1)Nc1cc(C(F)(F)F)c[nH]c1=O`
Result: -4.69

Problem: Quick one: cytotoxicity at 10 µM for `c1cncc(CNc2cccc(OCCN3CCCCC3)c2)c1` ?
Result: -0.589

Problem: Look up cytotoxicity at 10 µM for this compound: CC(Cn1cccn1)n1cnc2cccc(F)c2c1=O (stereo unspecified)
Result: -0.288

Problem: cytotoxicity at 10 µM lookup needed for `COc1cc(C)nc(N2CCN(C(=O)COCC3CC3)CC2)n1` , thanks.
Result: -5.92

Problem: Any idea what cytotoxicity at 10 µM was measured for NC(=O)N1CCCC(C(=O)N2CCc3c(nc(CC4CC4)[nH]c3=O)C2)C1 (stereo unspecified) ?
Result: -13.8

Problem: Return reported cytotoxicity at 10 µM; argument: Cc1csc(NC(=O)C2(C)CCCO2)n1 (stereo unspecified)
Result: -2.54

Problem: Which cytotoxicity at 10 µM is reported for this compound? Cc1ccc(CN2Cc3ccnn3CC(C(=O)NCC3CC3)C2)o1 (stereo unspecified)
Result: -15.9

Problem: Please look up its cytotoxicity at 10 µM: `Cc1[nH]ccc1C(=O)N1C[C@@H]2CC[C@H]1CN(S(=O)(=O)N(C)C)C2`
Result: 11.8

Problem: Fill in: cytotoxicity at 10 µM of `CSCC[C@H](NC(=O)Cn1ccc2ccc(Cl)cc21)C(=O)O` is ___
Result: 6.59

Problem: So what does the record say about cytotoxicity at 10 µM for `CC(C)CN1C[C@@H]2CN(c3cnccn3)C[C@@H]2C1=O` ?
Result: -91.6

Problem: Suppose we examine the compound O=C1NC2(CCNCC2)CC1c1cccnc1 (stereo unspecified) ; what cytotoxicity at 10 µM value has been reported?
Result: 1.77

Problem: Give the measured cytotoxicity at 10 µM of N#Cc1ccnc(SCC2CN=C(N3CCOCC3)S2)c1 (stereo unspecified) .
Result: -22.9

Problem: What does the data say about its cytotoxicity at 10 µM? Entry: `O=C(c1ccc(-c2cccc3c2CCNC3)o1)N1CCCCC1`
Result: 3.67

Problem: What measured cytotoxicity at 10 µM goes with `O=C(c1nc2sccn2c1-c1ncc[nH]1)N1CCCCC1` ?
Result: 7.52

Problem: Which cytotoxicity at 10 µM value is on record for `Cc1ccc2cc(C(=O)N3CCN(S(C)(=O)=O)CC3)[nH]c2c1` ?
Result: -58.1

Problem: Please look up its cytotoxicity at 10 µM: `N[C@@H]1CC[C@@H](Nc2nccc(CCC(F)(F)F)n2)C1`
Result: -3.73

Problem: Entry Cc1ccoc1C(=O)N1CCNCC1C(=O)NCc1ccncc1 (stereo unspecified) has what cytotoxicity at 10 µM?
Result: 6.03

Problem: Give its cytotoxicity at 10 µM value. Item: `Cc1nc(CCNc2nc(N(C)C)nc3c2CCCC3)cc(=O)[nH]1`
Result: 6.86

Problem: Given the entry `NC(=O)Cn1c(CO)cnc1SCC(=O)NCc1ccccc1` , report its measured cytotoxicity at 10 µM.
Result: 0.252

Problem: Entry under review: `OC1CCN(CCCn2ccnc2-c2c[nH]cn2)CC1` . Reported cytotoxicity at 10 µM?
Result: -1.57

Problem: Entry Cc1cc(C(=O)N2CCCC(n3ccnc3C)C2)c(C)s1 (stereo unspecified) : reported cytotoxicity at 10 µM = ?
Result: -16

The reported numbers originate from ChEMBL document CHEMBL4513216.
